The following molecules are shown together with reported IC50 values.
Tested on: Chang cells
Experiment: MTT cytotoxicity assay, Chang
Format: cell-based, human
Settings: Homo sapiens, 24 h, read-out: IC50 from MTT
Protocol: HepG2 and Chang cells were plated at 1 × 10^4 cells/well by adding 200 μL of a 5 × 10^4 cells/mL suspension to each well of a 96-well tissue culture plate. The plate was incubated for a sufficient time to assure attachment and 40% to 60% confluency. […] The last row was left as an untreated control. The plates were incubated at 37 °C, 5% CO2, for 24, 48 and 72 hours, respectively. […] The plates were read on microtiter plate reader at 570 nm. […]
Report as a plain number; the unit µM is understood.

[
  {
    "MOLECULE": "O=C1C=CC[C@H](/C=C/c2ccccc2)O1 [Goniothalamin]",
    "STUDY SYSTEM": "Chang cells",
    "IC50, µM": 79.1
  }
]

Proceed to the following item.
Would you kindly share the measured IC50 for COc1cccc2c1C(=O)c1c(O)c3c(c(O)c1C2=O)C[C@@](O)(C(=O)CO)C[C@@H]3O[C@H]1C[C@H](N)[C@H](O)[C@H](C)O1 [Doxorubicin, reference compound] ? 0.83
